Would you kindly list Activity for each of these compounds?
Target: Somatostatin receptor type 3 (Homo sapiens)
Sequence (P32745 whole entry): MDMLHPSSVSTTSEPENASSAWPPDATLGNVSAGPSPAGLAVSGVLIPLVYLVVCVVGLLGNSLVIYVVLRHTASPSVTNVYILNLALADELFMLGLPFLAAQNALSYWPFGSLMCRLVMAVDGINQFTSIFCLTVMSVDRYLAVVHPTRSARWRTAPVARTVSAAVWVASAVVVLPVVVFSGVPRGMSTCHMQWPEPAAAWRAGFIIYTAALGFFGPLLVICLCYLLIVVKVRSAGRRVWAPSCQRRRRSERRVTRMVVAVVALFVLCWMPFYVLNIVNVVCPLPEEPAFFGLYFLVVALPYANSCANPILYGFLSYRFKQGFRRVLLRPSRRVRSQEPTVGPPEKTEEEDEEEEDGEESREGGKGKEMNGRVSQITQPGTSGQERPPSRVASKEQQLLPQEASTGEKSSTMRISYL
Assay: Agonist activity at human SST3 expressed in CHO-K1 cells assessed as activation of […]-stimulated cAMP accumulation at 2 uM after 45 mins by TR-FRET assay
Assay type: functional, cell-based
Numbers only, in %.

O=C(Nc1ccc(F)cc1)O[C@@H]1CCCC[C@@H]1NCc1ccc(Cl)c(Cl)c1 : 55

Go through the items and report each one's Activity.
1. O=C(N[C@@H]1CCCC[C@@H]1OCc1ccc(Cl)c(Cl)c1)c1ccc(F)c(F)c1
2. O=C(N[C@@H]1CCCC[C@@H]1NCc1ccc(Cl)c(Cl)c1)c1ccccc1 (racemic)

1: 36; 2: 31

Go through the items and report each one's Activity.
1. O=C(N[C@@H]1C[C@@H]1NCc1ccc(Cl)c(Cl)c1)c1ccc(F)cc1
2. CN(Cc1c[nH]c2ccccc12)[C@H]1CCCC[C@H]1NC(=O)c1ccc(F)cc1
3. O=C(N[C@H]1CCCC[C@H]1NCc1c[nH]c2ccccc12)c1ccc(F)cc1
4. O=C(N[C@@H]1CCCC[C@@H]1NCc1nccs1)c1ccc(F)cc1 (racemic)
5. O=C(N[C@@H]1CCCC[C@@H]1NCc1c[nH]c2ccccc12)c1ccc(F)cc1
6. O=C(Nc1ccc(F)cc1)[C@@H]1CCCC[C@@H]1NCc1c[nH]c2ccccc12

1: -20; 2: 73; 3: 91; 4: 11; 5: 97; 6: 94
